Hello, the source for this data is patent US12606528B2, in case you need it.

Measured IC50, listed per entry for reference.
- Tested on: NF-κB
- Protocol Notes: NF-κB assay: THP1-NF-κB-LUC cells, LPS-stimulated secreted luciferase
- Type: cell-based
- Test Context: THP1-NF-κB-LUC cells; compounds 2 hours before LPS (10 ng/mL) for 18 hours; secreted luciferase; read-out: IC50 (NF-κB assay)

# input molecule: CC1Oc2c(cc(Br)cc2S(=O)(=O)Nc2cccc(Cl)c2)N(C)C1=O (stereo not shown) [BC19904] ; wanted: its IC50
< 100 nM

###

Quick reference for IC50 among some molecules
- Test system: TNF release
- Protocol Notes: TNF assay: TNF release from LPS-stimulated human PBMCs (TNF ELISA)
- Assay type: cell-based
- Test Context: PBMC; human PBMCs; compounds 2 hours before LPS (10 ng/ml) for 18 hours; supernatant TNF ELISA; read-out: IC50 (TNF assay)

>>> experimental_result("O=C1COc2cc(S(=O)(=O)Nc3ccc(OC(F)(F)F)cc3)c(Cl)cc2N1")
"> 10 µM"
>>> experimental_result("CCC1Oc2c(cc(Br)cc2S(=O)(=O)Nc2ccc(F)c(F)c2)N(C)C1=O (stereo not drawn)")
"1 to 10 µM"
>>> experimental_result("O=C1COc2cc(S(=O)(=O)Nc3ccccc3)c(Cl)cc2N1")
"> 10 µM"

Any idea what IC50 was measured for CCS(=O)(=O)c1cc2c(c(S(=O)(=O)Nc3ccc(OC)cc3)c1)OCC(=O)N2 ?
> 10 µM

May I ask what IC50 has been recorded for CCC1Oc2cc(S(=O)(=O)Nc3ccc(Cl)cc3)c(Br)cc2N(C)C1=O (stereo not drawn) ?
> 10 µM

Quick one: IC50 of CCOc1ccc(NS(=O)(=O)c2cc(Cl)cc3c2OC(C)C(=O)N3)cc1 (stereo not drawn) ?
> 10 µM

Please report the recorded IC50 for CCC1Oc2c(cc(Cl)cc2S(=O)(=O)Nc2ccc(C)cc2)NC1=O (stereo not drawn) .
1 to 10 µM

Value lookup for IC50; key = CCOc1ccc(NS(=O)(=O)c2cc3c(cc2Cl)NC(=O)C(C)O3)cc1 (stereo not drawn)
> 10 µM

# lookup: IC50 of Cc1ccc(Cl)cc1NS(=O)(=O)c1cc(Cl)cc2c1OCC(=O)N2
> 10 µM

###

Entries and their measured IC50 follow.
- Test system: NF-κB
- Protocol Notes: NF-κB assay: THP1-NF-κB-LUC cells, LPS-stimulated secreted luciferase
- Assay type: cell-based
- Test Context: THP1-NF-κB-LUC cells; compounds 2 hours before LPS (10 ng/mL) for 18 hours; secreted luciferase; read-out: IC50 (NF-κB assay)

Worked examples follow.
>>> experimental_result("CC(C)CC1Oc2cc(S(=O)(=O)Nc3cccc(F)c3)c(Br)cc2NC1=O (stereo not drawn)")
"100 to 1000 nM"
>>> experimental_result("CC1Oc2cc(S(=O)(=O)Nc3cccc(F)c3)c(Br)cc2N(C)C1=O (stereo not drawn)")
"100 to 1000 nM"
>>> experimental_result("CCC1Oc2c(cc(Br)cc2S(=O)(=O)NCc2ccc(C(F)(F)F)cc2)NC1=O (stereo not drawn)")
"< 100 nM"
>>> experimental_result("CCC1Oc2cc(S(=O)(=O)NCc3ccc(OC(F)(F)F)cc3)c(Br)cc2NC1=O (stereo not drawn)")
"> 10000 nM"
>>> experimental_result("Cc1ccc(F)c2c(=O)c(S(=O)(=O)c3ccc(F)c(F)c3)c[nH]c12")
"100 to 1000 nM"
>>> experimental_result("CCc1ccc(NS(=O)(=O)c2cc(S(=O)(=O)CC)cc3c2OCC(=O)N3)cc1")
"< 100 nM"

Entry under review: CCOc1ccc(NS(=O)(=O)c2cc3c(cc2C)N(C(C)=O)CCO3)cc1 . Reported IC50?
> 10000 nM

Returns the measured IC50 for the input compound. Input: Cc1ccc(S(=O)(=O)c2c(O)[nH]c3ncccc3c2=O)cc1F
1000 to 10000 nM

Which IC50 value belongs to Cc1ccc(NS(=O)(=O)c2cc3c(cc2Br)N(C)C(=O)C(C)O3)cc1 (stereo not drawn) ?
> 10000 nM
